Source of measurements: the supplement of paper PMC10567573

B1: SNAP91 (parent)
chain: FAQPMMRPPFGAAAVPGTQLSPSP

# Variants of: B1
# Protocol Summary: protein stability index of a GFP-peptide fusion (GPS, HEK-293T) (PSI 1-6); higher = more stable;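 further: lentivirally expressed fusions sorted by FACS into six bins by GFP to DsRed ratio, PSI derived from sequencing read proportions per bin multiplied by bin number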
# Condition Summary: c terminus: a fixed tail appended
Readout: protein stability index
Field format: numeric only.

Worked examples follow.
                        seq_string  measured
0   FAQPMMRPVFGAAAVPGTQLSPSP [P9V]      3.26
1  FAQPMMRPPFGAAAVPGTSLSPSP [Q19S]      2.84
2  FAQPMMRPPFGAAAVPGTQLNPSP [S21N]      3.03
3   FAFPMMRPPFGAAAVPGTQLSPSP [Q3F]      3.04

## Task Would you kindly share the measured protein stability index for FAQPMMNPPFGAAAVPGTQLSPSP [R7N] ?
## Result 2.92

## Task // query: FAQPMMRPPFGAAAVPGYQLSPSP [T18Y]
## Result 2.58

## Task One more variant: FAQPMMRDPFGAAAVPGTQLSPSP [P8D]
## Result 3.5

## Task Also FNQPMMRPPFGAAAVPGTQLSPSP [A2N] , if possible.
## Result 4.59

## Task What do we get for FAQPMMRPPFGAASVPGTQLSPSP [A14S] ?
## Result 2.87

## Task Try this variant next: FQQPMMRPPFGAAAVPGTQLSPSP [A2Q]
## Result 3.33

## Task What would you report for FAQPMMRPPIGAAAVPGTQLSPSP [F10I] ?
## Result 3.99

## Task For FVQPMMRPPFGAAAVPGTQLSPSP [A2V] then?
## Result 1.71

## Task Next variant: FAQPMMRPPFGAAGVPGTQLSPSP [A14G]
## Result 2.8

## Task // same read-out, input: FAQPMMRPPFGAAALPGTQLSPSP [V15L]
## Result 3.08
